conditions used: Crystal; visual observation
Listed below: Normal melting temperature values for each entry.
Record the value in °C, omitting the unit from your answer.

Some compounds with known Normal melting temperature results, for comparison:
{"smi": "CCCCCCCCCCCCC", "metric": "Normal melting temperature", "endpoint result": -4.14}
{"smi": "CCCCCCCCCCCCCCCC", "metric": "Normal melting temperature", "endpoint result": 18.30}
{"smi": "CCCCCCCCCCCCCCCCCCCC", "metric": "Normal melting temperature", "endpoint result": 36.36}

In the following, a different compound is considered.
### Prompt Requested read-out: Normal melting temperature. Entry: `C1CCCCC1`
### Response 7.0

----------
Listed below: Normal melting temperature values for each entry.
conditions used: Crystal 1; visual observation
Record the value in °C, omitting the unit from your answer.

{"smi": "CCCCCCCCCCCCCCCCCCCCO", "Normal melting temperature / °C": 64.52}
{"smi": "CCCCCCCCCCCCCCCCCCO", "Normal melting temperature / °C": 57.00}
{"smi": "CCCCCCCCCCCCCCCCO", "Normal melting temperature / °C": 49.1}

In the following, a different molecule is considered.
### Prompt Requested read-out: Normal melting temperature. Entry: `CCC(=O)C(C)=O`
### Response -52.00
